experiment: Pharmacokinetic evaluation in beagles after intravenous or intragastric administration; type: in vivo, beagle; settings: beagle, dog, plasma, po, intragastric administration, 5 mg/kg
Measurement kind: AUC(0-inf) (µg·h/mL)

CCn1c(=O)c2c(nc(/C=C/c3ccc(OC4CCS(=O)(=O)CC4)cc3)n2C)n(CC)c1=O [Example 1]; 114

* * *

Below is a list of entries, each paired with its recorded Tmax value.
assay: Pharmacokinetic evaluation in rats after intravenous or intragastric administration; type: in vivo, SD rats; conditions: SD, rat, plasma, intravenous injection, 1 mg/kg
Measurement kind: Tmax (min)

CCn1c(=O)c2c(nc(/C=C/c3ccc(OC4CCS(=O)(=O)CC4)cc3)n2C)n(CC)c1=O [Example 1]; 4.98
CCn1c(=O)c2c(nc(/C=C/c3ccc(OC4CCS(=O)(=O)CC4)c(F)c3)n2C)n(CC)c1=O [Example 2]; 4.98

* * *

test: Pharmacokinetic evaluation in beagles after intravenous or intragastric administration; format: in vivo, beagle; conditions: beagle, dog, plasma, intravenous injection, 1 mg/kg
Measurement kind: AUC(0-t) (ng·h/mL)

CCn1c(=O)c2c(nc(/C=C/c3ccc(OC4CCS(=O)(=O)CC4)cc3)n2C)n(CC)c1=O [Example 1]; 25400

* * *

test: Pharmacokinetic evaluation in rats after intravenous or intragastric administration; format: in vivo, SD rats; conditions: SD, rat, plasma, po, intragastric administration, 5 mg/kg
Listing of recorded AUC(0-t) by entry.
Measurement kind: AUC(0-t) (ng·h/mL)

CCn1c(=O)c2c(nc(/C=C/c3ccc(OC4CCS(=O)(=O)CC4)cc3)n2C)n(CC)c1=O; 32100
CCn1c(=O)c2c(nc(/C=C/c3ccc(OC4CCS(=O)(=O)CC4)c(F)c3)n2C)n(CC)c1=O; 23700

* * *

Experiment: Pharmacokinetic evaluation in beagles after intravenous or intragastric administration
Assay type: in vivo, beagle
Conditions: beagle, dog, plasma, intravenous injection, 1 mg/kg
Procedure: The LC/MS/MS system for analysis includes the Agilent 1200 series vacuum degasser, a quaternary pump, an orifice plate sampler, a thermostatted column oven, and an API4000Qtrap triple quadrupole mass spectrometer with an electrospray ionization source (ESI). Waters xbridge C18, 2.1×50 mm, 3.5 μm column was used for analysis, and 0.5 μL of sample was injected. […]
Measurement kind: Tmax (h)

CCn1c(=O)c2c(nc(/C=C/c3ccc(OC4CCS(=O)(=O)CC4)cc3)n2C)n(CC)c1=O [Example 1]; 1

* * *

Quick reference for AUC(0-t) among some compounds
test: Pharmacokinetic evaluation in rats after intravenous or intragastric administration; type: in vivo, SD rats; details: SD, rat, plasma, intravenous injection, 1 mg/kg
Measurement kind: AUC(0-t) (ng·h/mL)

CCn1c(=O)c2c(nc(/C=C/c3ccc(OC4CCS(=O)(=O)CC4)c(F)c3)n2C)n(CC)c1=O; 4180
CCn1c(=O)c2c(nc(/C=C/c3ccc(OC4CCS(=O)(=O)CC4)cc3)n2C)n(CC)c1=O; 4340

* * *

assay: Pharmacokinetic evaluation in rats after intravenous or intragastric administration; type: in vivo, SD rats; details: SD, rat, plasma, po, intragastric administration, 5 mg/kg
Readings of MRT inf for the listed compounds
Measurement kind: MRT inf (h)

CCn1c(=O)c2c(nc(/C=C/c3ccc(OC4CCS(=O)(=O)CC4)c(F)c3)n2C)n(CC)c1=O; 5.94
CCn1c(=O)c2c(nc(/C=C/c3ccc(OC4CCS(=O)(=O)CC4)cc3)n2C)n(CC)c1=O; 5.2
